Target: human mGluR5 (Homo sapiens, UniProt P41594)
Construct: expressed in transfected cells; host or cells: HEK293 cells stably expressing rat GLAST (EAAT1), stably transfected with pcDNAzeo3.1 carrying synthetic human mGluR5 DNA; zeocin-selected single clones
Sequence (P41594 21-1212): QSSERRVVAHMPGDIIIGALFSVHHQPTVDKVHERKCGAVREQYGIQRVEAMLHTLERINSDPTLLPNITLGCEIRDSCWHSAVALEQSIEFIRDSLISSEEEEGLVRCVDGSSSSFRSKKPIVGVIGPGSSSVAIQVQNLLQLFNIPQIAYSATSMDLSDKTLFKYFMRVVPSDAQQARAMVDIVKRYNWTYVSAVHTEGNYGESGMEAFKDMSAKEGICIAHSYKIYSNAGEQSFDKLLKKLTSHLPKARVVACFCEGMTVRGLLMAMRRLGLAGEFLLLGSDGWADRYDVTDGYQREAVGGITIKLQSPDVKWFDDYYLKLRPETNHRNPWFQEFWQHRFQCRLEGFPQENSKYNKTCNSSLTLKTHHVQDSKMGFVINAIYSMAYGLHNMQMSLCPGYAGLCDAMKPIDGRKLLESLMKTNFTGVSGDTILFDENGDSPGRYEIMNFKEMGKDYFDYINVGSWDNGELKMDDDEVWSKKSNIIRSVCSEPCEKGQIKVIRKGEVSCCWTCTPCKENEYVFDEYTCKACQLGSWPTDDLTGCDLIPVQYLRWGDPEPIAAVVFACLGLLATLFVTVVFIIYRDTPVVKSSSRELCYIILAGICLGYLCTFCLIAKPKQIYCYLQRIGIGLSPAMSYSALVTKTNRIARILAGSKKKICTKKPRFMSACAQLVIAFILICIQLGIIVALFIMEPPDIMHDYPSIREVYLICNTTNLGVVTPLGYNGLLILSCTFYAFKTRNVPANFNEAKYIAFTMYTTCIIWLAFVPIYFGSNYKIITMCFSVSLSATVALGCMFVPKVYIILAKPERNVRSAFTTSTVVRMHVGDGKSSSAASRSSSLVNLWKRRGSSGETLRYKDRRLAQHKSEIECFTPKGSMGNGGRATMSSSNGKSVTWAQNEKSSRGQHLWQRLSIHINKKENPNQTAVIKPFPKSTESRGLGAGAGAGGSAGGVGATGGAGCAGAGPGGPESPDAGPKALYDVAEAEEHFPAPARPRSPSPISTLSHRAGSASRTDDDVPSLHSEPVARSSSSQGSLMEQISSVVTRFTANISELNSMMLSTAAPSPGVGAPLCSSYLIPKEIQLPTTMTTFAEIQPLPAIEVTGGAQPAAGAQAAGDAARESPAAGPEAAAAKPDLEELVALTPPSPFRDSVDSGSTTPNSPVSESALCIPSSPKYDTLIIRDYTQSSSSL
Assay: In vitro cell-based FLIPR calcium assay for positive modulation of the activation of mGluR5 by glutamate (PAM EC50)
Conditions: HEK293/GLAST cells expressing recombinant human mGluR5; FLIPR calcium signal; glutamate added at its EC20; read-out: mGluR5 PAM EC50
Description: The DNA sequences encoding the structural regions for rat mGluR5 [Abe T, Sugihara H, Nawa H, Shigemoto R, Mizuno N, Nakanishi S (1992) “Molecular characterization of a novel metabotropic glutamate receptor mGluR5 coupled to inositol phosphate/Ca^2+ signal transduction” Journal of Biological Chemistry vol. 267, no. […]
Endpoint: EC50

Answered cases to consult:
get_value(item= `O=C1CCn2c(nc3cc(C#Cc4cccc(F)c4)ccc3c2=O)CCN1` , readout=EC50) returns 30 to 100 nM

get_value(item= `N#CCN1CCc2nc3cc(C#Cc4ccccn4)ccc3c(=O)n2CC1` , readout=EC50) returns 30 to 100 nM

get_value(item= `COCCc1cnc2cc(C#Cc3cccc(F)c3)ccn2c1=O` , readout=EC50) returns 10 to 30 nM

get_value(item= CC1CCCc2nc3cc(C#Cc4ccccn4)ccc3c(=O)n2C1 (centres unmarked) , readout=EC50) returns < 10 nM

Next:
get_value(item= `CC1(C)Cn2c(nc3cc(C#Cc4ccccn4)ccc3c2=O)C(F)(F)C1` , readout=EC50) returns < 10 nM

get_value(item= `CC1(C)CNc2nc3cc(C#Cc4ccccn4)ccc3c(=O)n2C1` , readout=EC50) returns < 10 nM

get_value(item= `O=c1c(CO)cnc2cc(C#Cc3cccc(F)c3)ccn12` , readout=EC50) returns 300 to 1000 nM

get_value(item= O=c1c2ccc(C#Cc3ccccn3)cc2nc2n1CC1CCCCN1C2 (centres unmarked) , readout=EC50) returns 300 to 1000 nM

get_value(item= CC1(F)CCc2nc3cc(C#Cc4ccccn4)ccc3c(=O)n2CC1 (single isomer, unassigned) [Example 6.48a/6.48b faster moving enantiomer (fraction 1)] , readout=EC50) returns < 10 nM

get_value(item= O=c1c2ccc(C#Cc3ccccn3)cc2nc2n1CC1CCCN1CC2 (single isomer, unassigned) [Example 9.4a/9.4b faster moving enantiomer (fraction 1)] , readout=EC50) returns 30 to 100 nM

get_value(item= O=c1c2ccc(C#Cc3ccccn3)cc2nc2n1CCN1CCCC1C2 (centres unmarked) , readout=EC50) returns 100 to 300 nM

get_value(item= O=c1c2ccc(C#Cc3ccccn3)cc2nc2n1CC(O)CC2 (centres unmarked) , readout=EC50) returns 300 to 1000 nM

get_value(item= O=c1c2ccc(C#Cc3ccccn3)cc2nc2n1CC1CCCN1CC2 (centres unmarked) [Example 9.4] , readout=EC50) returns 30 to 100 nM

get_value(item= O=c1c2ccc(C#Cc3ccccn3)cc2nc2n1CCC(C(F)(F)F)CC2 (centres unmarked) , readout=EC50) returns 30 to 100 nM

====

Recorded pEC50 values for a group of compounds are listed next.
Molecular target: human mGluR5 (Homo sapiens, UniProt P41594)
Construct: expressed in transfected cells; host or cells: HEK293 cells stably expressing rat GLAST (EAAT1), stably transfected with pcDNAzeo3.1 carrying synthetic human mGluR5 DNA; zeocin-selected single clones
Test: In vitro cell-based FLIPR calcium assay for positive modulation of the activation of mGluR5 by glutamate (PAM EC50)
Details: HEK293/GLAST cells expressing recombinant human mGluR5; FLIPR calcium signal; glutamate added at its EC20; read-out: mGluR5 PAM EC50
pEC50: −log10 of the molar value.

Answered cases to consult:
Summary: O=C(Nc1ccc(F)cc1)c1ccc2c(c1)N=C1CCCCCCN1C2 [Example 26.1] , human mGluR5 (Homo sapiens, UniProt P41594), pEC50 = 6.00 to 6.52

Summary: CCC(C)n1cnc2cc(C#Cc3cccc(F)c3)ccc2c1=O (stereo not drawn) [Example 1.19] , human mGluR5 (Homo sapiens, UniProt P41594), pEC50 = > 8.00

Summary: Cn1c(C2CCCO2)nc2cc(C#Cc3cccc(F)c3)ccc2c1=O (stereo not drawn) [Example 2.3] , human mGluR5 (Homo sapiens, UniProt P41594), pEC50 = 6.00 to 6.52

Summary: O=c1c2ccc(C#Cc3ccccn3)cc2nc2n1CCN(CCC(F)(F)F)CC2 [Example 8.21] , human mGluR5 (Homo sapiens, UniProt P41594), pEC50 = 6.52 to 7.00

Summary: O=c1c2ccc(C#Cc3ccccn3)cc2nc2n1CC1(CCOCC1)C2 [Example 3.24] , human mGluR5 (Homo sapiens, UniProt P41594), pEC50 = 7.52 to 8.00

Next:
Summary: O=c1[nH]ccc2cc(C#Cc3cccc(F)c3)ccc12 [Example 18.1] , human mGluR5 (Homo sapiens, UniProt P41594), pEC50 = 6.00 to 6.52

Summary: O=c1c2c(nc3cc(C#Cc4cccnc4)ccn13)CCCCCC2 [Example 17.3] , human mGluR5 (Homo sapiens, UniProt P41594), pEC50 = > 8.00

Summary: O=c1c2c(nc3cc(C#Cc4cccnc4)ccn13)CCCCC2 [Example 16.4] , human mGluR5 (Homo sapiens, UniProt P41594), pEC50 = > 8.00

Summary: N#CCN1CCc2nc3cc(C#Cc4cccc(F)c4)ccc3c(=O)n2CC1 [Example 8.14] , human mGluR5 (Homo sapiens, UniProt P41594), pEC50 = 7.52 to 8.00

====

Target: human mGluR5 (Homo sapiens)
Construct: expressed in transfected cells; host or cells: HEK293 cells stably expressing rat GLAST (EAAT1), stably transfected with pcDNAzeo3.1 carrying synthetic human mGluR5 DNA; zeocin-selected single clones
Test: In vitro cell-based FLIPR calcium assay for positive modulation of the activation of mGluR5 by glutamate (PAM EC50)
Conditions: HEK293/GLAST cells expressing recombinant human mGluR5; FLIPR calcium signal; glutamate added at its EC20; read-out: mGluR5 PAM EC50
Endpoint: EC50

get_value(item= `O=c1c2ccc(C#Cc3ccccc3)cc2nc2n1CCCCC2` , readout=EC50) returns < 10 nM

get_value(item= `N#CCN1CCc2nc3cc(C#Cc4ccccn4)ccn3c(=O)c2C1` , readout=EC50) returns 300 to 1000 nM

get_value(item= `CC1(C)CCc2nc3cc(C#Cc4cccc(F)c4)ccc3c(=O)n2C1` , readout=EC50) returns < 10 nM

get_value(item= `O=c1c2ccc(C#Cc3cccc(F)c3)cc2nc2n1CCCC2` , readout=EC50) returns < 10 nM

get_value(item= `CC1(C)CCc2nc3cc(/C=C/c4cccc(C#N)n4)ccc3c(=O)n2C1` , readout=EC50) returns 10 to 30 nM

get_value(item= COCC1CCc2nc3cc(C#Cc4cccc(F)c4)ccc3c(=O)n2C1 (stereo not shown) , readout=EC50) returns < 10 nM

Next:
get_value(item= COC1CCc2nc3cc(C#Cc4ccccn4)ccc3c(=O)n2C1 (stereo not shown) , readout=EC50) returns 30 to 100 nM

get_value(item= COCC1CCc2nc3cc(C#Cc4ccccn4)ccc3c(=O)n2C1 (single isomer, unassigned) [4.34a/4.34b faster moving enantiomer (fraction 1)] , readout=EC50) returns 30 to 100 nM

get_value(item= `O=c1c2ccc(C#Cc3cccc(F)c3)cc2nc2n1CCC1(CC2)OCCO1` , readout=EC50) returns 10 to 30 nM

get_value(item= `O=c1c2c(nc3cc(C#Cc4ccccn4)ccn13)CCCCC2` , readout=EC50) returns < 10 nM

get_value(item= `O=c1c2c(nc3cc(C#Cc4ccncc4)ccn13)CCCCC2` , readout=EC50) returns < 10 nM

get_value(item= CC1CCc2nc3cc(C#Cc4ccccn4)ccc3c(=O)n2CC1 (single isomer, unassigned) [6.10/6.11 faster moving enantiomer (fraction 1)] , readout=EC50) returns < 10 nM

get_value(item= `CC1(C)CCn2c(nc3nc(C#Cc4ccccn4)ccc3c2=O)C1` , readout=EC50) returns 30 to 100 nM

get_value(item= `O=c1c2ccc(C#Cc3ccc(F)cn3)cc2nc2n1CCC1(CC2)OCCO1` , readout=EC50) returns 30 to 100 nM

get_value(item= Cc1cnc(NC(=O)c2ccc3c(=O)n4c(nc3c2)C(C)CCCCC4)s1 (stereo not shown) , readout=EC50) returns 10 to 30 nM

get_value(item= O=c1c2ccc(C#Cc3ccc(F)cc3)cc2ncn1CC1CCCO1 (single isomer, unassigned) [1.15/1.16 faster moving enantiomer (fraction 1)] , readout=EC50) returns 10 to 30 nM

get_value(item= `CN1Cc2nc3cc(C#Cc4ccccn4)ccc3c(=O)n2CC1(C)C` , readout=EC50) returns 300 to 1000 nM

get_value(item= `O=c1c2ccc(C#Cc3ccccc3C(F)(F)F)cc2nc2n1CCC1(CC2)OCCO1` , readout=EC50) returns 100 to 300 nM

get_value(item= CC1CCc2nc3cc(C#Cc4ccccn4)ccc3c(=O)n2C1 (stereo not shown) , readout=EC50) returns 10 to 30 nM

get_value(item= CC12CCCN1Cc1nc3cc(C#Cc4ccccn4)ccc3c(=O)n1C2 (stereo not shown) , readout=EC50) returns 30 to 100 nM

get_value(item= CC1CN(C)Cc2nc3cc(C#Cc4ccccn4)ccc3c(=O)n21 (stereo not shown) , readout=EC50) returns 30 to 100 nM

get_value(item= CC1CCCCc2nc3cc(C#Cc4ccccn4)ccc3c(=O)n21 (stereo not shown) , readout=EC50) returns < 10 nM

get_value(item= `O=c1c2ccc(C#Cc3ccc(F)cc3)cc2ncn1CC1CC1` , readout=EC50) returns 100 to 300 nM

get_value(item= CC1(F)CCc2nc3cc(C#Cc4ccccn4)ccc3c(=O)n2CC1 (single isomer, unassigned) [Example 6.48a/6.48b slower moving enantiomer (fraction 2)] , readout=EC50) returns < 10 nM
